# MEASUREMENT DESCRIPTION: qHTS drug screen for cell cycle checkpoint inhibitors in PARPi-resistant BRCA-mutant ovarian cancer cell lines. (AID 1963452)
# CONDITION LABEL: PEO1/OlaR viability, CellTiter-Glo luminescence, 96 h; measured here: PEO4 Z-AUC; stronger effect = lower value
PROPERTY: Z-AUC
Keep the answer to the number alone.

- SMILES INPUT: "O=C(NO)C1(CS(=O)(=O)c2ccc(Oc3ccc(Cl)cc3)cc2)CCOCC1"
  OBSERVED MEASUREMENT: 0.465

As a next step, examine the compound that follows.
[ask] # return recorded Z-AUC for input NC(=O)c1ccc2nc(-c3ccc(C4(N)CCC4)cc3)c(-c3ccccc3)n2n1
[reply] 0.0521

###

# Test system: P93_24
# MEASUREMENT DESCRIPTION: qHTS profiling for inhibitors of Plasmodium falciparum proliferation (AID 504749);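 further: 0% = DMSO vehicle and full inhibition = artemisinin control; nearly all actives have a fitted effect of over 60% in size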
# CONDITION LABEL: P. falciparum in erythrocytes, SYBR Green DNA, 72 h; series mostly up to 12.8 µM
Records with an inconclusive call do not appear. The source made the active and inactive calls. Calls come from the whole dose curve; as a rule, active = well fitted inhibition curve with a large enough effect; inconclusive = small, poorly fitted or top-dose-only effect; inactive = flat fitted curve, though single readings scatter. Peptide text beside a SMILES is read from it.
PROPERTY: outcome

Below are worked cases with known answers.
- COMPOUND: "COC(=O)C(Cc1ccccc1)NC(=O)C(N)CC(=O)O (stereo not drawn) (H-Asp-Phe-OMe; configuration not given here)"
  outcome: "inactive"
- COMPOUND: "Cn1nnnc1SCC1=C(C(=O)O)N2C(=O)[C@@H](NC(=O)[C@@H](O)c3ccccc3)[C@@H]2SC1"
  outcome: "inactive"
- COMPOUND: "CN(C)CCc1c[nH]c2ccc(CC3COC(=O)N3)cc12 (stereo not given)"
  outcome: "inactive"
- COMPOUND: "CC[C@H](Cc1c(I)cc(I)c(N)c1I)C(=O)O"
  outcome: "inactive"

[ask] # return recorded outcome for input C[C@H](C(=O)O)c1cccc(Oc2ccccc2)c1
[reply] inactive

###

# MEASUREMENT DESCRIPTION: qHTS Assay for Lipid Storage Modulators (AID 1519)
# CONDITION LABEL: Drosophila S3 cells, BODIPY lipid droplet/cell ratio, laser cytometry; measured here: cell count channel max response; cells loaded with oleic acid
Results filed as inconclusive are left out.
Some molecules, each annotated with its measured max response.
Report field: quantity (unit follows the number).

Below are worked cases with known answers.
- MOLECULE: "Cc1ccc2c(c1)c1c3n2CCN[C@H]3CCC1"
  max response: "-5.65%"
- MOLECULE: "Cn1nnnc1SCC1=C(C(=O)O)N2C(=O)[C@@H](NC(=O)[C@@H](O)c3ccccc3)[C@@H]2SC1"
  max response: "-4.52%"

[ask] # return recorded max response for input COc1cc(OC)c2c(c1Cl)O[C@@]1(C2=O)[C@H](C)CC(=O)C[C@@H]1OC
[reply] -13.8%

[ask] # return recorded max response for input Cn1c(-c2ccc3c(c2)OCO3)cc(=O)c2ccccc21
[reply] -4.86%

[ask] # return recorded max response for input CCN1CCN(C(=O)NC(C(=O)NC2C(=O)N3C2SC(C)(C)C3C(=O)O)c2ccccc2)C(=O)C1=O (stereo not drawn)
[reply] -3.83%

###

# MEASURED TARGET: Rap guanine nucleotide exchange factor 3 (Homo sapiens)
# MEASUREMENT DESCRIPTION: Confirmatory qHTS for antagonist of cAMP-regulated guanine nucleotide exchange factor 3 (EPAC1) (AID 1645880); further: nearly all actives have a fitted effect of over 55% in size
# CONDITION LABEL: EPAC1 Rap1B-BODIPY-GDP exchange, fluorescence; series mostly up to 115 µM
Inconclusive results are not listed. The source made the active and inactive calls. The call rests on the fitted dose curve; in most records, active means well fitted inhibition curve with a large enough effect; inconclusive means small, poorly fitted or top-dose-only effect; inactive means no such curve, though single readings can be large or run the other way.
Lab note: assign the record to one of active, inactive

Some solved entries appear below for comparison.
- MOLECULE: "CCOC(=O)c1ccc(NC(=O)Cn2nc(C)c3nn(-c4ccc(Cl)cc4)c(C)c3c2=O)cc1"
  ANSWER LABEL: "inactive"
- MOLECULE: "NS(=O)(=O)c1ccc(NC2=CC(=O)C(=O)c3ccccc32)cc1"
  ANSWER LABEL: "active"
- MOLECULE: "Brc1ccc(-c2csc(-c3c[nH]c4ccccc34)n2)cc1"
  ANSWER LABEL: "inactive"
- MOLECULE: "O=C(NCc1ccc(F)cc1)c1ccc2c(=O)n3c(nc2c1)CCCCC3"
  ANSWER LABEL: "inactive"
- MOLECULE: "CC1(C(=O)Nc2ccc(Cl)cc2)Cc2c(-c3cccc(C(N)=O)c3)ccnc2O1 (stereo unspecified)"
  ANSWER LABEL: "inactive"

[ask] GET /call?item= COc1ccccc1NC(=O)COC(=O)c1ccc([N+](=O)[O-])s1 returns the recorded outcome of this test.
[reply] active

[ask] GET /call?item= O=C(NCc1ccco1)c1c[nH]c2ccc(S(=O)(=O)N3CCOCC3)cc2c1=O returns the recorded outcome of this test.
[reply] inactive

[ask] GET /call?item= CC(=O)c1ccc(NC(=O)CC2Nc3cccc4cccc(c34)NC2=O)cc1 (stereo unspecified) returns the recorded outcome of this test.
[reply] active

[ask] GET /call?item= CC(=Cc1ccccc1)C=C1SC(=S)N(CCCC(=O)Nc2ccc(C(=O)O)c(O)c2)C1=O returns the recorded outcome of this test.
[reply] active

[ask] GET /call?item= COc1ccc(/C=C/C(=O)NC2CCS(=O)(=O)C2)cc1 (stereo unspecified) returns the recorded outcome of this test.
[reply] inactive

[ask] GET /call?item= COc1cccc(-n2nnc3c(=O)n(C/C=C/c4ccccc4)cnc32)c1 returns the recorded outcome of this test.
[reply] inactive

[ask] GET /call?item= CC(C)(C)c1ccc(OCCC(=O)OCC(=O)Nc2ccc(N3CCOCC3)cc2)cc1 returns the recorded outcome of this test.
[reply] inactive
